# System: MCF7 breast
# Assay comment: NCI-60 one-dose screen, 48 h
# Particulars: 10 µM unless noted
The panel holds about 83,000 compounds, 20% with a hit somewhere; the sample as a whole holds those more often. The source made the active and inactive calls. Rule for the calls: active = growth percent below 10; inactive = the rest.
Outcome codes: active, inactive

[[record]]
compound = "CN(C)CC1C(=O)O[C@H]2[C@H]1CC/C(COC(=O)c1cc3ccccc3[nH]1)=C\\CC[C@@]1(C)O[C@@H]21 (some centres undefined)"
answer_label = "active"

[[record]]
compound = "COc1cccc(-c2nn(-c3ccccc3)cc2-c2ccnc(NCCCNC(=O)c3ccc(F)cc3)c2)c1"
answer_label = "inactive"

[[record]]
compound = "CC1=C(SCCC(=O)OC(C[Se]C2=C(C)C(=O)c3ccccc3C2=O)C(=O)NCCCCCC(=O)OCc2ccccc2)C(=O)c2ccccc2C1=O (centres undefined)"
answer_label = "inactive"

[[record]]
compound = "COc1cccc(-c2nc3sccn3c2-c2ccnc(NCCNS(=O)(=O)c3ccc(C(F)(F)F)cc3)c2)c1"
answer_label = "inactive"


###

# System: A549/ATCC NSCLC
# Assay comment: NCI-60 one-dose screen, 48 h (100 = growth as untreated, 0 = no growth, -100 = all killed)
# Particulars: 10 µM unless noted
The panel holds about 83,000 compounds, 20% with a hit somewhere; the sample as a whole holds those more often.
Measure name: growth (%)

[[record]]
molecule = "CS(=O)(=O)c1ccc(Nc2nc(N[C@H]3CCCC[C@H]3N)nc3cc[nH]c(=O)c23)cc1"
system = "A549/ATCC NSCLC"
observed = 33.6

[[record]]
molecule = "C=CC(=O)Nc1cccc(Oc2nccc(Nc3nnc(C4CC4)s3)n2)c1"
system = "A549/ATCC NSCLC"
observed = 103

[[record]]
molecule = "Cc1ccc2nc(NC(=O)CSc3nc(-c4ccccc4)c(C#N)c(=O)n3Cc3ccccc3)sc2c1"
system = "A549/ATCC NSCLC"
observed = 104

[[record]]
molecule = "CCN1C(=O)N(CC)C2Nn3c(s/c(=C4\\C(=O)N(C)c5ccccc54)c3=O)=NC21 (centres undefined)"
system = "A549/ATCC NSCLC"
observed = 49.3

[[record]]
molecule = "COc1cccc(-c2nn(-c3ccccc3)cc2-c2ccnc(NCCNC(=O)Nc3cccc(C(F)(F)F)c3)c2)c1"
system = "A549/ATCC NSCLC"
observed = 7.06

[[record]]
molecule = "O=C1CCc2c(sc3[nH]c(=S)n(-c4ccc(OC(F)(F)F)cc4)c(=O)c23)C1"
system = "A549/ATCC NSCLC"
observed = 77.1

[[record]]
molecule = "O=C(CSc1nccc(Nc2ccc(S(=O)(=O)Nc3nccs3)cc2)n1)c1ccc(F)cc1"
system = "A549/ATCC NSCLC"
observed = 104

[[record]]
molecule = "CC(CN1CCCCC1)C(=O)c1ccccc1 (centres undefined)"
system = "A549/ATCC NSCLC"
observed = 98

[[record]]
molecule = "COc1ccc(CN2C(=O)C(Cl)=C(Nc3cccc(C(F)(F)F)c3)C2=O)cc1"
system = "A549/ATCC NSCLC"
observed = 59.2


###

# Test system: NCI/ADR-RES ovarian
# Assay comment: NCI-60 one-dose screen, 48 h (100 = growth as untreated, 0 = no growth, -100 = all killed)
# Particulars: 10 µM unless noted
# Method: Growth inhibition of the NCI/ADR-RES human […] tumor cell line is measured as a screen for anti-cancer activity. Cells are grown in 96 well plates and exposed to the test compound for 48 hours. Compounds are tested at a single concentration, which is 10^-5 M for most compounds. The reported endpoint is percent growth (GI% or GIPRCNT), where numbers from 0 - 100% represent growth inhibition, and numbers from -100% - 0 represent cell death. For example, a value of 40 represents 60% growth inhibition. […]
About 83,000 compounds went through this panel and 20% of them were active in at least one assay; those are over-represented in the sample as a whole.
Is growth at least 90%? Then Condition met. If not, Condition not met.

[[record]]
compound = "CCOC(=O)c1c2ncccc2n2c(=O)n(-c3ccccc3C)nnc12"
answer_label = "Condition met"

[[record]]
compound = "O=C(COc1ccc(/C=C2\\Oc3ccccc3C2=O)cc1)Nc1nc2ccccc2s1"
answer_label = "Condition not met"

[[record]]
compound = "O=C1Nc2ccccc2/C1=C/c1cn(C(=O)c2ccc(Cl)cc2)c2ccccc12"
answer_label = "Condition met"

[[record]]
compound = "C[n+]1cc2c3c(ccc2c2ccc4cc5c(cc4c21)OCO5)OCO3"
answer_label = "Condition not met"

[[record]]
compound = "CCOC(=O)c1c2c(n3ccc(NC(=O)OC(C)(C)C)cc13)C(=O)c1ncccc1C2=O"
answer_label = "Condition not met"

[[record]]
compound = "Cc1nn(-c2ccccc2)c(Oc2ccc(Cl)cc2)c1/C=N\\N=c1/sc2ccccc2n1C"
answer_label = "Condition met"

[[record]]
compound = "Oc1ccc(CN2CCC(N3CCOCC3)CC2)c2cccnc12"
answer_label = "Condition not met"

[[record]]
compound = "COc1cc(/C=C/C(=O)c2ccc(Nc3nc(Nc4ccc(F)cc4)nc(Nc4ccc(Cl)cc4)n3)cc2)cc(OC)c1OC"
answer_label = "Condition not met"

[[record]]
compound = "O=C1CCC2=C3C4CCCCC4C(=O)C4CCCC(OC2C1)C34 (stereo not given)"
answer_label = "Condition not met"

[[record]]
compound = "Cc1c(C(=O)N[C@@H](Cc2ccccc2)C(=O)C(=O)NCCc2ccccc2)[nH]c2ccccc2c1=O"
answer_label = "Condition met"


###

# Test system: NCI/ADR-RES ovarian
# Assay comment: NCI-60 one-dose screen, 48 h
# Particulars: 10 µM unless noted
About 83,000 compounds went through this panel and 20% of them were active in at least one assay; those are over-represented in the sample as a whole. The source made the active and inactive calls. The calls were made as follows: active = growth percent below 10; inactive = the rest.
Outcome codes: active, inactive

[[record]]
compound = "COc1ccc(-c2nc(SCCC(C)C)nc(N/N=C\\c3cccc([N+](=O)[O-])c3)c2C#N)cc1"
answer_label = "inactive"

[[record]]
compound = "CN(C)c1ccc(-c2ccc3[nH]c(=O)nc(-c4ccccc4)c3c2)cn1"
answer_label = "inactive"

[[record]]
compound = "COc1ccc(-c2csc(C3=C(O)CN(CCCN4CCCC4=O)C3=N)n2)cc1OC"
answer_label = "inactive"

[[record]]
compound = "COc1cc(CCC[P+](c2ccccc2)(c2ccccc2)c2ccccc2)cc2c1OCO2"
answer_label = "inactive"

[[record]]
compound = "COc1ccc(-c2nc(SCCC(C)C)nc(N/N=C\\c3ccccc3O)c2C#N)cc1"
answer_label = "inactive"

[[record]]
compound = "COC(=O)c1c2c(c[n+]([O-])c1C)C(=O)C=CC2=O"
answer_label = "inactive"

[[record]]
compound = "O=[N+]([O-])c1ccc(N2c3ccncc3Sc3ccncc32)cc1"
answer_label = "inactive"

[[record]]
compound = "Cn1ccc2c(c1=O)C(=O)c1nccc3c1c-2nc1ccccc13"
answer_label = "inactive"

[[record]]
compound = "Cc1cccc(Cc2cnc(NC(=O)c3ccc4nnsc4c3)s2)c1"
answer_label = "inactive"

[[record]]
compound = "CN1CCN(C(=O)c2c3c(n4ccccc24)C(=O)c2ncccc2C3=O)CC1"
answer_label = "inactive"

[[record]]
compound = "CCCCCCCCCCCCCCCCCCOc1ccc(CC(=O)OCC[N+]2(C)CCCC2)cc1"
answer_label = "inactive"

[[record]]
compound = "CC/C=C1/C(=O)C=C[C@@H]1C/C=C\\CCCC(=O)O"
answer_label = "inactive"

[[record]]
compound = "Cc1cc(NCc2cc(Nc3ccnc4cc(Cl)ccc34)ccc2F)nc(N2CCN(c3ccccc3)CC2)n1"
answer_label = "inactive"

[[record]]
compound = "CC(C)CCC[C@@H](C)[C@H]1CC[C@H]2[C@@H](Nc3ccc(O)cc3)CCC[C@]12C"
answer_label = "inactive"

[[record]]
compound = "c1cc2ccc3cc2cc1CNCCOCCNCc1ccc2ccc(cc2c1)CNCCOCCNC3"
answer_label = "inactive"

[[record]]
compound = "Cc1cc(C)c(-c2c(C)cc(C)cc2CBr)c(CBr)c1"
answer_label = "inactive"

[[record]]
compound = "CC(C)(C)CC(C)(C)Nc1c(-c2ccncc2)nc2cnccn12"
answer_label = "inactive"

[[record]]
compound = "CC(C)(C)C(CCc1ccc(Cl)cc1)N1CCN(C2CCCCC2)CC1 (stereo unspecified)"
answer_label = "inactive"

[[record]]
compound = "O=c1oc2ccccc2c(Cl)c1Cl"
answer_label = "inactive"

[[record]]
compound = "C[C@]12CC[C@@H]3c4cc(OC(F)F)c(O)cc4CC[C@H]3[C@@H]1CC[C@@H]2OS(N)(=O)=O"
answer_label = "inactive"

[[record]]
compound = "Clc1cccc(Cl)c1/C=C/c1cc(/C=C/c2c(Cl)cccc2Cl)[nH]n1"
answer_label = "active"


###

# System: MDA-MB-435 melanoma
# Assay comment: NCI-60 one-dose screen, 48 h
# Particulars: 10 µM unless noted
This is part of a sample that, as a whole, favours compounds with a hit. Of some 83,000 tested, about 20% had one in any assay. The source made the active and inactive calls. The calls were made as follows: active = growth percent below 10; inactive = the rest.
Outcome codes: active, inactive

[[record]]
compound = "CC1(C)OC2C(CO[Si](C)(C)C(C)(C)C)OC(n3c(I)c(C#C[Si](C)(C)C)c(=O)[nH]c3=O)C2O1 (centres undefined)"
answer_label = "inactive"

[[record]]
compound = "O=c1c2c3c(sc2nc(N/N=C/c2ccc(Br)cc2)n1Cc1ccccc1)CCCC3"
answer_label = "inactive"

[[record]]
compound = "C=C(C)[C@@H]1CC[C@]2(C(=O)NC3CCCCC3)CC[C@]3(C)[C@H](CC[C@@H]4[C@@]5(C)CCCNC(C)(C)[C@@H]5CC[C@]43C)[C@@H]12"
answer_label = "active"

[[record]]
compound = "N=C1C(c2nc(-c3ccc(Br)cc3)cs2)=C(O)CN1Cc1cccnc1"
answer_label = "inactive"

[[record]]
compound = "CCCCCCCOc1c(OC)cc(C2CC(=O)Nc3c2c(C)nn3-c2nc3ccccc3[nH]2)cc1OC (centres undefined)"
answer_label = "active"

[[record]]
compound = "CCCCc1ccc(Nc2ccc(Nc3ccc(CCCC)cc3S(=O)(=O)O)c3c2C(=O)c2ccccc2C3=O)c(S(=O)(=O)O)c1"
answer_label = "inactive"

[[record]]
compound = "Cc1ccc(NS(=O)(=O)c2ccc3c(c2)C2OCCC2C(c2ccc(C(=O)C(C)C)cc2)N3)cc1C (centres undefined)"
answer_label = "inactive"

[[record]]
compound = "COc1ccc(-c2cc(-c3cc(OC)ccc3OC)nc(SCC(=O)c3ccccc3)c2C#N)cc1"
answer_label = "inactive"

[[record]]
compound = "Cc1cc(NCCCCNc2ccnc3cc(Cl)ccc23)nc(Nc2ccc(C(=O)N3CCCCC3)cc2)n1"
answer_label = "active"

[[record]]
compound = "O=C(CCCCCCSc1nc(-c2ccccc2)cc(-c2ccc(Cl)cc2)n1)NO"
answer_label = "inactive"

[[record]]
compound = "O=[N+]([O-])c1ccc(Sc2cccc[n+]2[O-])c2nonc12"
answer_label = "inactive"

[[record]]
compound = "Cc1c(C)c2c(c(C)c1OCC(=O)O)CC[C@@](C)(CCC[C@@H](C)CCC[C@@H](C)CCCC(C)C)O2"
answer_label = "inactive"

[[record]]
compound = "O=C(CC(SCc1ccccc1)c1ccccc1)c1ccccc1 (centres undefined)"
answer_label = "inactive"

[[record]]
compound = "Cn1cc(-c2csc(-c3cccc(F)c3)n2)c2cccnc21"
answer_label = "active"

[[record]]
compound = "CCN(CC)c1nc(SCC(=O)Nc2nc3ccc(C)cc3s2)nc(-c2ccccc2)c1C#N"
answer_label = "inactive"

[[record]]
compound = "COc1cc(C(=O)/C=C/c2c(-c3ccc(F)cc3)nc3sc(C)cn23)cc(OC)c1OC"
answer_label = "active"

[[record]]
compound = "C[n+]1cc2c3c(ccc2c2ccc4cc5c(cc4c21)OCO5)OCO3"
answer_label = "active"

[[record]]
compound = "C=CCSc1nc2ccccc2cc1/C=N/O"
answer_label = "inactive"

[[record]]
compound = "COC1=CC(=O)C[C@@H](C)[C@]12Oc1c(Cl)c(OC)cc(OC)c1C2=O"
answer_label = "active"

